Every entry's value here was drawn from patent US12679838B2.

assay: Preliminary safety test of compounds, 3-day oral gavage; conditions: mouse, in vivo, Balb/c, tentatively suggested, read-out: maximum tolerated dose
Catalogue of MTD at 3 days values

C=CC(=O)N1CCN(c2nc(=O)n(-c3c(C)ccnc3C(C)C)c3nc(-c4ccccc4C=O)c(Cl)cc23)[C@@H](C)C1 [Compound 3-2M] : > 800 mg/kg

Kindly consider the entry below.
Which MTD at 3 days is listed for C=CC(=O)N1CCN(c2nc(=O)n(-c3c(C)ccnc3C(C)C)c3nc(-c4c(F)cccc4C=O)c(Cl)cc23)[C@@H](C)C1 (single isomer, unassigned) [Compound 3-6M] ?
> 800 mg/kg
